// data source = paper PMC10776854

# Lookup of reported response (SQLE/MARCH6 ratio) keyed by entry
B1: MARCH6-FLAG WT [human] / SQLE [human (endogenous in K562)] (parent)
chain 1: MDTAEEDICRVCRSEGTPEKPLYHPCVCTGSIKFIHQECLVQWLKHSRKEYCELCKHRFAFTPIYSPDMPSRLPIQDIFAGLVTSIGTAIRYWFHYTLVAFAWLGVVPLTACRIYKCLFTGSVSSLLTLPLDMLSTENLLADCLQGCFVVTCTLCAFISLVWLREQIVHGGAPIWLEHAAPPFNAAGHHQNEAPAGGNGAENVAADQPANPPAENAVVGENPDAQDDQAEEEEEDNEEEDDAGVEDAADANNGAQDDMNWNALEWDRAAEELTWERMLGLDGSLVFLEHVFWVVSLNTLFILVFAFCPYHIGHFSLVGLGFEEHVQASHFEGLITTIVGYILLAITLIICHGLATLVKFHRSRRLLGVCYIVVKVSLLVVVEIGVFPLICGWWLDICSLEMFDATLKDRELSFQSAPGTTMFLHWLVGMVYVFYFASFILLLREVLRPGVLWFLRNLNDPDFNPVQEMIHLPIYRHLRRFILSVIVFGSIVLLMLWLPIRIIKSVLPNFLPYNVMLYSDAPVSELSLELLLLQVVLPALLEQGHTRQWLKGLVRAWTVTAGYLLDLHSYLLGDQEENENSANQQVNNNQHARNNNAIPVVGEGLHAAHQAILQQGGPVGFQPYRRPLNFPLRIFLLIVFMCITLLIASLICLTLPVFAGRWLMSFWTGTAKIHELYTAACGLYVCWLTIRAVTVMVAWMPQGRRVIFQKVKEWSLMIMKTLIVAVLLAGVVPLLLGLLFELVIVAPLRVPLDQTPLFYPWQDWALGVLHAKIIAAITLMGPQWWLKTVIEQVYANGIRNIDLHYIVRKLAAPVISVLLLSLCVPYVIASGVVPLLGVTAEMQNLVHRRIYPFLLMVVVLMAILSFQVRQFKRLYEHIKNDKYLVGQRLVNYERKSGKQGSSPPPPQSSQE
chain 2: MWTFLGIATFTYFYKKFGDFITLANREVLLCVLVFLSLGLVLSYRCRHRNGGLLGRQQSGSQFALFSDILSGLPFIGFFWAKSPPESENKEQLEARRRRKGTNISETSLIGTAACTSTSSQNDPEVIIVGAGVLGSALAAVLSRDGRKVTVIERDLKEPDRIVGEFLQPGGYHVLKDLGLGDTVEGLDAQVVNGYMIHDQESKSEVQIPYPLSENNQVQSGRAFHHGRFIMSLRKAAMAEPNAKFIEGVVLQLLEEDDVVMGVQYKDKETGDIKELHAPLTVVADGLFSKFRKSLVSNKVSVSSHFVGFLMKNAPQFKANHAELILANPSPVLIYQISSSETRVLVDIRGEMPRNLREYMVEKIYPQIPDHLKEPFLEATDNSHLRSMPASFLPPSSVKKRGVLLLGDAYNMRHPLTGGGMTVAFKDIKLWRKLLKGIPDLYDDAAIFEAKKSFYWARKTSHSFVVNILAQALYELFSATDDSLHQLRKACFLYFKLGGECVAGPVGLLSVLSPNPLVLIGHFFAVAIYAVYFCFKSEPWITKPRALLSSGAVLYKACSVIFPLIYSEMKYMVH

# Variants of: B1
# method.summary: FLAG-immunoprecipitation, Western blot densitometry
# conditions.used: with SQLE [human (endogenous in K562)], K562 cells expressing MARCH6-FLAG, eight independent biological replicates, parent: 0.55, read off a plot
In your answer, state the number alone without any accompanying words.

Study these solved cases before continuing.
1) chain 1 Y92V Y96V
0.27
2) chain 1 L140A L747A
0.5
3) chain 1 Y92V
0.89

Now for a further variant.
According to the records, this variant chain 1 Y96V displays response (SQLE/MARCH6 ratio) of 0.24
